# Tested on: rodent lifetime carcinogenesis bioassay, tumor incidence TD50
# assay remarks: carcinogenic potency in animals, long-term in vivo studies, CPDB compilation (AID 1745844)
# measurement conditions: rat; strain Fischer 344; males; in drinking water; site: colon; lesion: several types; types named in the paper; dosed 30 weeks; study length 100 weeks
measure name: TD50

> print(dat)
      chem.smiles                                    system  reported.result
1  CN=[N+](C)[O-]  rodent lifetime carcinogenesis bioassay, tumor incidence TD50  0.585 mg/kg/day

* * *

# System: rodent lifetime carcinogenesis bioassay, tumor incidence TD50
# assay remarks: carcinogenic potency in animals, long-term in vivo studies, CPDB compilation (AID 1745844)
# measurement conditions: rat; strain Fischer 344; males; by gavage; site: forestomach; lesion: carcinoma; dosed 30 weeks; study length 102 weeks
measure name: TD50

> print(dat)
         chem.smiles  reported.result
1  CCCCCCCCCCN(C)N=O   46.6 mg/kg/day

* * *

# Tested on: rodent lifetime carcinogenesis bioassay, tumor incidence TD50
# assay remarks: carcinogenic potency in animals, long-term in vivo studies, CPDB compilation (AID 1745844)
# measurement conditions: rat; strain Charles River CD (Sprague-Dawley); males; by gavage; site: cerebellum; lesion: malignant glioma; dosed 46 weeks; study length 60 weeks
measure name: TD50

> print(dat)
     chem.smiles  measure.name  reported.result
1  O=S1(=O)CCCO1          TD50   4.75 mg/kg/day

* * *

# System: rodent lifetime carcinogenesis bioassay, tumor incidence TD50
# assay remarks: carcinogenic potency in animals, long-term in vivo studies, CPDB compilation (AID 1745844)
# measurement conditions: mouse; strain B6C3F1; females; inhaled; site: mammary gland; lesion: adenocarcinoma; dosed 83 weeks; study length 104 weeks
measure name: TD50 (mg/kg/day)

> print(dat)
   chem.smiles                                    system  reported.result
1       C=CC=C  rodent lifetime carcinogenesis bioassay, tumor incidence TD50             93.3

* * *

# Tested on: rodent lifetime carcinogenesis bioassay, tumor incidence TD50
# assay remarks: carcinogenic potency in animals, long-term in vivo studies, CPDB compilation (AID 1745844)
# measurement conditions: rat; strain Sprague-Dawley; males; in feed; site: liver; lesion: several types; types named in the paper; dosed 78 weeks; study length 95 weeks
measure name: TD50 (mg/kg/day)

> print(dat)
                          chem.smiles  measure.unit  reported.result
1  Clc1cc2c(cc1Cl)Oc1cc(Cl)c(Cl)cc1O2     mg/kg/day         8.31e-05

* * *

# System: rodent lifetime carcinogenesis bioassay, tumor incidence TD50
# assay remarks: carcinogenic potency in animals, long-term in vivo studies, CPDB compilation (AID 1745844)
# measurement conditions: rat; strain Fischer 344; females; inhaled; site: mammary gland; lesion: fibroadenoma; dosed 52 weeks; study length 104 weeks
measure name: TD50

> print(dat)
   chem.smiles  reported.result
1        C=CCl   14.6 mg/kg/day

* * *

# Tested on: rodent lifetime carcinogenesis bioassay, tumor incidence TD50
# assay remarks: carcinogenic potency in animals, long-term in vivo studies, CPDB compilation (AID 1745844)
# measurement conditions: rat; strain Fischer 344; females; in feed; site: stomach; lesion: squamous-cell carcinoma; dosed 78 weeks; study length 106 weeks
measure name: TD50

> print(dat)
               chem.smiles  reported.result
1  [O-]/[N+](=N\O)c1ccccc1   31.3 mg/kg/day

Reference for the values: PubChem BioAssay AID1745844
